I'd be grateful if you could share measured IC50 (µg/ml) with constrains for these entries.
biological target: HIV Env of isolate 3103.v3.c10 (clade ACD) (HIV); test: cell-based or functional assay
Write down the numeric answer in µg/mL and omit the unit.

Which IC50 (µg/ml) with constrains value belongs to ePGDM9 (antibody, V domains shown) VH: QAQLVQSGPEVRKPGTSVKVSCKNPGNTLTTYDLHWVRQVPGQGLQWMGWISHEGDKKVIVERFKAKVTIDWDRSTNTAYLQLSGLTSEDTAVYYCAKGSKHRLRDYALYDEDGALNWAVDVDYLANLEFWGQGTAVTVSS VL: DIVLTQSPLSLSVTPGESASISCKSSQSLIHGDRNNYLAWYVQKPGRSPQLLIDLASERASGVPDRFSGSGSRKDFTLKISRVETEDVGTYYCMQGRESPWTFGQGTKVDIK ?
0.073

// repeat for ePGDM5 (antibody, V domains shown) VH: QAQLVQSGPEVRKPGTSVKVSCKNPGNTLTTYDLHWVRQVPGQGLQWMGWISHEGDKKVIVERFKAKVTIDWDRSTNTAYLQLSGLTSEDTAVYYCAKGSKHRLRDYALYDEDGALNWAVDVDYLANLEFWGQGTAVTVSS VL: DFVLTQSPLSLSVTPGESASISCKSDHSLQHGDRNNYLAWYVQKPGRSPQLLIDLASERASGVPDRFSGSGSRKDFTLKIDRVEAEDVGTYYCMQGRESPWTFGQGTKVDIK and report
0.063

// repeat for PGDM1400 (antibody, V domains shown) VH: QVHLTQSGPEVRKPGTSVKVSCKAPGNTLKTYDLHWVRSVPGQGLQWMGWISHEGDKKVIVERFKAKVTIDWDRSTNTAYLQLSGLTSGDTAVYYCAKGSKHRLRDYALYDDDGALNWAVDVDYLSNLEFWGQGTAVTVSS VL: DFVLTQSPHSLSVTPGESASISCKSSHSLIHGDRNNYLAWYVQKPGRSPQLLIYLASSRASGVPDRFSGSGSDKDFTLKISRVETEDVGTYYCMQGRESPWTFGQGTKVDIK and report
0.223

// repeat for ePGDM13 (antibody, V domains shown) VH: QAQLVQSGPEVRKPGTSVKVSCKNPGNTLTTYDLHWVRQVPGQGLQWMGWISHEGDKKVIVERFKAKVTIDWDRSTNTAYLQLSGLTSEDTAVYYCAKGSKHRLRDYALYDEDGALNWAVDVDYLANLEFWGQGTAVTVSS VL: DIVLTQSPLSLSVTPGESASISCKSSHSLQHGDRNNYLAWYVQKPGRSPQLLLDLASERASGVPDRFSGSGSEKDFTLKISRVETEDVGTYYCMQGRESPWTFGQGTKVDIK and report
0.09
